# Measurement Target: T1, Acro COVID S1 (S1N-C82E8) (SARS-CoV-2, UniProt P0DTC2 16-685)
# T1 construct: domain: S1 (subunit 1)
# Experimental Details: phage ELISA
Readout: specificity ELISA, fold over background (fold over background)
Express it in fold over background; write the number only.

Answered cases to consult:
• SARS-CoV-2 variant 1-3 (antibody, V domains shown) VH: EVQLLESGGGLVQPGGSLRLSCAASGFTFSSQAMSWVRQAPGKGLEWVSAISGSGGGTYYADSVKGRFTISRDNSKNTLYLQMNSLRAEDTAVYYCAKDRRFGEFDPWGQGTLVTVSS VL: QSALTQPASVSGSPGQSITISCTGISSDVGSYNLVSWYQQHPGKAPKLMIYEGTKRPSGVSNRFSGSKSGNTASLTISGLQAEDEADYYCCSYAGSSSFVVFGGGTKLTVL = 1.6
• SARS-CoV-2 variant 1-2 (antibody, V domains shown) VH: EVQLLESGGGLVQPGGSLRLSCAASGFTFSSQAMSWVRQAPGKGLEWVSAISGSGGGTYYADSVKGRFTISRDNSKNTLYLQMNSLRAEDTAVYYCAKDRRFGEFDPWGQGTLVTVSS VL: QSALTQPASVSGSPGQSITISCTGTSSGVGSYNLVSWYQQHPGKAPKLMIYEGIKRPSGVSNRFSGSKSGNTASLTISGLQAEDEADYYCCSYAGSSSFVVFGGGTKLTVL = 1.8
• SARS-CoV-2 variant 1-5 (antibody, V domains shown) VH: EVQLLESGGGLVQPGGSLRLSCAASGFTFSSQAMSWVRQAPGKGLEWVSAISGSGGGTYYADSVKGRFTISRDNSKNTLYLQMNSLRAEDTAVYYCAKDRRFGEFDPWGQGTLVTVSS VL: QSALTQPASVSGSPGQSITISCTGTSSGVGSYNLVSWYQQHPGKAPKLMIYEASKRPSGVSNRFSGSKSGNTASLTISGLQAEDEADYYCCSYAGSYTFAVFGGGTKLTVL = 1.5
• SARS-CoV-2 variant 1-22 (antibody, V domains shown) VH: EVQLLESGGGLVQPGGSLRLSCAASGFTFSSYAMNWVRQAPGKGLEWVSIISGSGGSTYYADSVKGRFTISRDNSKNTLYLQMNSLRAEDTAVYYCAREGYRDYLWYFDLWGQGTLVTVSS VL: QSALTQPASVSGSPGQSITISCTGTSTDVGSYNLVSWYQQHPGKAPKLMIYEGSQRPSGVSNRFSGSKSGNTASLTISGLQAEDEADYYCCSYAGSSTVFGGGTKLTVL = 32.7
• SARS-CoV-2 variant 1-27 (antibody, V domains shown) VH: EVQLLESGGGLVQPGGSLRLSCAASGFTFSSYAMTWVRQAPGKGLEWVSAISGSGGGTYYADSVKGRFTISRDNSKNTLYLQMNSLRAEDTAVYYCASSSSWQFDYWGQGTLVTVSS VL: QSALTQPASVSGSPGQSITISCTGTSSYVGHYNLVSWYQQHPGKAPKLMIYEGSRRPSGVSNRFSGSKSGNTASLTISGLQAEDEADYYCCSYAGSYTHYVFGGGTKLTVL = 1.5

Measured specificity ELISA, fold over background of SARS-CoV-2 variant 1-41 (antibody, V domains shown) VH: EVQLLESGGGLVQPGGSLRLSCAASGFTFSSYDMSWVRQAPGKGLEWVSVISGSGGSTYYADSVKGRFTISRDNSKNTLYLQMNSLRAEDTAVYYCAKGPLVGWYFDLWGQGTLVTVSS VL: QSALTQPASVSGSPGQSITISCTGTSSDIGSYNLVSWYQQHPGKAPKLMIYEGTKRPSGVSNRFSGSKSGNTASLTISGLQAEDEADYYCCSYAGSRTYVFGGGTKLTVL : 4.5

Measured specificity ELISA, fold over background of SARS-CoV-2 variant 1-32 (antibody, V domains shown) VH: EVQLLESGGGLVQPGGSLRLSCAASGFTFSSYAMYWVRQAPGKGLEWVSAISGSGGSTFYADSVKGRFTISRDNSKNTLYLQMNSLRAEDTAVYYCTRPPYGDYGDYWGQGTLVTVSS VL: QSALTQPASVSGSPGQSITISCTGTSSDVGGYNLVSWYQQHPGKAPKLMIYEGNKRPSGVSNRFSGSKSGNTASLTISGLQAEDEADYYCCSYAGSSTFPVVFGGGTKLTVL : 11.5

Measured specificity ELISA, fold over background of SARS-CoV-2 variant 1-8 (antibody, V domains shown) VH: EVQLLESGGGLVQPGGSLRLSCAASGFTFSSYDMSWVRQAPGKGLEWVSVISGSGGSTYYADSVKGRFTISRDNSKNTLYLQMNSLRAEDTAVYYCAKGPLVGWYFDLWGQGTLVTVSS VL: QSALTQPASVSGSPGQSITISCTGTSNDVGSYNLVSWYQQHPGKAPKLMIYEGSKRPSGVSNRFSGSKSGNTASLTISGLQAEDEADYYCCSYAGSRYVVFGGGTKLTVL : 12

Measured specificity ELISA, fold over background of SARS-CoV-2 variant 1-17 (antibody, V domains shown) VH: EVQLLESGGGLVQPGGSLRLSCAASGFTFSSYAMYWVRQAPGKGLEWVSAISGSAGSTYYADSVKGRFTISRDNSKNTLYLQMNSLRAEDTAVYYCARDTNDFWSGYSIFDPWGQGTLVTVSS VL: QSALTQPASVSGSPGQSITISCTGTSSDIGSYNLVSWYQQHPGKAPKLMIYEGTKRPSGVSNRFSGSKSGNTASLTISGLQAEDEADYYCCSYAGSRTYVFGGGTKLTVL : 25.1

Measured specificity ELISA, fold over background of SARS-CoV-2 variant 1-4 (antibody, V domains shown) VH: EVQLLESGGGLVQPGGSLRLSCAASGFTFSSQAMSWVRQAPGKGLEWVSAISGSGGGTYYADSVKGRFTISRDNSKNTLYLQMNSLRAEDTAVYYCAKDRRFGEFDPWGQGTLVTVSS VL: QSALTQPASVSGSPGQSITISCTGTSSDVGTYNLVSWYQQHPGKAPKLMIYEGSQRPSGVSNRFSGSKSGNTASLTISGLQAEDEADYYCCSYAGSSSFVVFGGGTKLTVL : 1
